Every entry's value here was drawn from patent US8163793B2.

System: Cat L (UniProt P07711)
Assay name: Cathepsin enzyme inhibition assay (fluorogenic peptide substrate Z-Val-Val-Arg-AMC), Cathepsin L
Assay type: biochemical, human and mouse
Condition context: enzyme 1 nM, substrate 20 μM, pH 6.5; read-out: CatL IC50
pIC50: −log10 of the molar value.
Label N if pIC50 falls below 5; label Y in every other case.

Enquiry: Entry N#CC1(NC(=O)[C@@H]2C[C@@H](S(=O)(=O)c3ccccc3C(F)(F)F)CN2c2ccnc(C(F)(F)F)n2)CC1 [Example 185] : is its pIC50 no less than 5?
Return: N

Enquiry: Please give the result for C[C@H](Oc1ccc(S(=O)(=O)[C@@H]2C[C@H](C(=O)NC3(C#N)CC3)N(C(=O)C(C)(C)C)C2)c(Cl)c1)C(F)(F)F [Example 204] too.
Return: N

Enquiry: Next compound up: Cc1cc(N2C[C@H](S(=O)(=O)c3ccccc3Cl)C[C@H]2C(=O)NC2(C#N)CC2)n(C2CCSCC2)n1 [Example 465]
Return: Y

Enquiry: Proceed to CCN1C[C@H](S(=O)(=O)c2ccccc2Cl)C[C@H]1C(=O)NC1(C#N)CC1 [Example 83]
Return: N

Enquiry: What do you have for CC(C)(C)OC(=O)N1C[C@H](S(=O)(=O)c2ccc(Cl)cc2Cl)C[C@H]1C(=O)NC1(C#N)CC1 [Example 4] ?
Return: N

Enquiry: Can you check CC(C)(C)OC(=O)N1C[C@H](S(=O)(=O)c2ccc(N3CCC(C(F)(F)F)CC3)cc2Cl)C[C@H]1C(=O)NC1(C#N)CC1 [Example 153] next?
Return: N

Enquiry: Next compound: C[C@H](Oc1ccc(S(=O)(=O)[C@@H]2C[C@H](C(=O)NC3(C#N)CC3)N(C(=O)C3(C(F)(F)F)CC3)C2)c(Cl)c1)C(F)(F)F [Example 184]
Return: N

Enquiry: Further, for Cc1cc(N2C[C@H](S(=O)(=O)c3ccc(N4CC(F)(F)C4)cc3Cl)C[C@H]2C(=O)NC2(C#N)CC2)n(C2CCC2)n1 [Example 456] ?
Return: Y

Enquiry: Further, for C[C@H](Oc1ccc(S(=O)(=O)[C@@H]2C[C@H](C(=O)NC3(C#N)CC3)N(C(=O)C3(C)CC3)C2)c(Cl)c1)C(F)(F)F [Example 200] ?
Return: N

Enquiry: Then CC(C)C(C(=O)N1C[C@H](S(=O)(=O)c2ccccc2Cl)C[C@H]1C(=O)NC1(C#N)CC1)c1ccc(Cl)cc1 (stereo partly shown) [Example 432] ?
Return: Y

Enquiry: Another compound to look at: N#CC1(NC(=O)[C@@H]2C[C@@H](S(=O)(=O)c3ccccc3Cl)CN2c2nc(Cl)ns2)CC1 [Example 486]
Return: N

Enquiry: Also check CC1(C(=O)N2C[C@H](S(=O)(=O)c3ccc(OCC(F)(F)F)cc3C(F)(F)F)C[C@H]2C(=O)NC2(C#N)CC2)CC1 [Example 211]
Return: N

Enquiry: Moving on to the next compound: N#CC1(NC(=O)[C@@H]2C[C@@H](S(=O)(=O)c3ccc(OCC(F)(F)F)cc3Cl)CN2C(=O)C2(c3cccc(Cl)c3)CC2)CC1 [Example 331]
Return: Y

###

System: UniProtKB P25774
Assay name: Cathepsin enzyme inhibition assay (fluorogenic peptide substrate Z-Val-Val-Arg-AMC), Cathepsin S
Format: biochemical, human and mouse
Condition context: enzyme 1 nM, substrate 20 μM, pH 6.5; read-out: CatS IC50
Structures can show the parent of a compound that is named as a salt.
Quantity kind: pIC50
A value of pIC50 is the negative decimal logarithm of a concentration given in moles per litre.

Enquiry: Any idea what pIC50 came out for CC(C)(C)OC(=O)N1CCC(C(=O)N2C[C@H](S(=O)(=O)c3ccccc3Cl)C[C@H]2C(=O)NC2(C#N)CC2)(c2ccc(Cl)cc2)CC1 on UniProtKB P25774?
Return: 8.71

Enquiry: N#CC1(NC(=O)[C@@H]2C[C@@H](S(=O)(=O)c3ccc(OCC(F)(F)F)cc3Cl)CN2C(=O)C2(c3ccc(Cl)cc3)CCCCC2)CC1 , same question.
Return: 9.43

Enquiry: Next compound: COc1cccc(-n2nc(C)cc2N2C[C@H](S(=O)(=O)c3ccccc3C(F)(F)F)C[C@H]2C(=O)NC2(C#N)CC2)c1
Return: 8.72

Enquiry: Proceed to N#CC1(NC(=O)[C@@H]2C[C@@H](S(=O)(=O)c3ccccc3C(F)(F)F)CN2CC(F)(F)C(F)(F)F)CC1
Return: 7.90

Enquiry: And N#CC1(NC(=O)[C@@H]2C[C@@H](S(=O)(=O)c3ccccc3C(F)(F)F)CN2)CC1 ?
Return: 8.66

Enquiry: Cc1cc(N2C[C@H](S(=O)(=O)c3ccccc3C(F)(F)F)C[C@H]2C(=O)NC2(C#N)CC2)n(-c2cccc(Cl)c2)n1 ?
Return: 9.33

Enquiry: Proceed to Cc1ccc(C2(C(=O)N3C[C@H](S(=O)(=O)c4ccccc4Cl)C[C@H]3C(=O)NC3(C#N)CC3)CC2)cc1
Return: 9.28

Enquiry: Ok, now N#CC1(NC(=O)[C@@H]2C[C@@H](S(=O)(=O)c3ccccc3Cl)CN2S(=O)(=O)c2ccc(Cl)cc2)CC1
Return: 9.41

Enquiry: Next up: CC(C)(C)OC(=O)N1C[C@H](S(=O)(=O)c2ccc(Cl)cc2Cl)C[C@H]1C(=O)NC1(C#N)CC1
Return: 8.28

Enquiry: Same thing, different compound: Cc1cc(N2C[C@H](S(=O)(=O)c3ccc(-n4cccn4)cc3Cl)C[C@H]2C(=O)NC2(C#N)CC2)n(C2CCOCC2)n1
Return: 9.03

Enquiry: Lookup CC(C)C[C@]1(C(=O)NC2(C#N)CC2)C[C@H](S(=O)(=O)c2ccccc2)[C@@H](c2ccc(F)cc2)N1
Return: 5.90

Enquiry: Now give it for N#CC1(NC(=O)[C@H]2CC(S(=O)(=O)c3ccccc3Cl)CN2C(=O)C(NCC(F)(F)F)c2ccc(Cl)cc2)CC1 (stereo partly shown) too.
Return: 7.94

Enquiry: Repeat with N#CC1(NC(=O)[C@@H]2C[C@@H](S(=O)(=O)c3ccccc3Cl)CN2)CCCCC1 [Example 46, Hydrochloride]
Return: 6.68

###

System: Cathepsin S (UniProt P25774)
Assay name: Cathepsin enzyme inhibition assay (fluorogenic peptide substrate Z-Val-Val-Arg-AMC), Cathepsin S
Format: biochemical, human and mouse
Condition context: enzyme 1 nM, substrate 20 μM, pH 6.5; read-out: CatS IC50
Structures can show the parent of a compound that is named as a salt.
Give measured pIC50 for each item. Keep answers brief.
Bear in mind: pIC50 is minus log10 of a mol/L concentration; give just that figure.

Enquiry: Give the measured pIC50 of COc1ccc(S(=O)(=O)[C@@H]2C[C@@H](C(=O)NC3(C#N)CC3)N(c3cc(C)nn3C3CCC3)C2)c(Cl)c1 .
Return: 9.54

Enquiry: Same lookup for Cc1cc(N2C[C@H](S(=O)(=O)c3ccccc3C(F)(F)F)C[C@H]2C(=O)NC2(C#N)CC2)n[nH]1 , please.
Return: 7.82

Enquiry: Check CCN1CCN(c2ccc(S(=O)(=O)[C@@H]3C[C@@H](C(=O)NC4(C#N)CC4)N(C(=O)C4(C(F)(F)F)CC4)C3)c(Cl)c2)CC1 [Example 141] too.
Return: 9.22

Enquiry: Can you check N#CC1(NC(=O)[C@@H]2C[C@@H](S(=O)(=O)c3ccccc3Cl)CN2C(=O)Cc2ccc(Cl)c(F)c2)CC1 next?
Return: 9.05

Enquiry: Please do the same for N#CC1(NC(=O)[C@@H]2C[C@@H](S(=O)(=O)c3ccc(N4CCC(F)(F)C4)cc3C(F)(F)F)CN2)CC1 [Example 28, hydrochloride] as well.
Return: 8.82

Enquiry: What about COCCN1CCN(c2ccc(S(=O)(=O)[C@@H]3C[C@@H](C(=O)NC4(C#N)CC4)N(C(=O)C4(C(F)(F)F)CC4)C3)c(Cl)c2)CC1 ?
Return: 10.10

###

System: Cathepsin S (UniProt P25774)
Assay name: Cathepsin enzyme inhibition assay (fluorogenic peptide substrate Z-Val-Val-Arg-AMC), Cathepsin S
Assay type: biochemical, human and mouse
Condition context: enzyme 1 nM, substrate 20 μM, pH 6.5; read-out: CatS IC50
Where a name gives a salt, the structure may show the parent alone.
For each of the compounds below, state its pIC50.
// field semantics: pIC50 = negative decimal log of concentration (mol/L)

Enquiry: So what's the measured pIC50 for this one? N#CC1(NC(=O)[C@@H]2C[C@@H](S(=O)(=O)c3ccccc3OC(F)(F)F)CN2)CC1 [Example 13, Hydrochloride]
Return: 7.33

Enquiry: Please answer likewise for Cc1cc(N2C[C@H](S(=O)(=O)c3ccc(N4CC(F)(F)C4)cc3Cl)C[C@H]2C(=O)NC2(C#N)CC2)n(CCc2ccccc2)n1
Return: 8.87

Enquiry: Note, next up: N#CC1(NC(=O)[C@@H]2C[C@@H](S(=O)(=O)c3ccccc3Cl)CN2C(=O)C2(c3cccc(C(F)(F)F)c3)CC2)CC1
Return: 9.44

Enquiry: Same question, Cc1cc(N2C[C@H](S(=O)(=O)c3ccccc3C(F)(F)F)C[C@H]2C(=O)NC2(C#N)CC2)n(-c2ccccc2)n1 this time
Return: 9.30

Enquiry: Follow-up item: Cc1cc(N2C[C@H](S(=O)(=O)c3ccccc3Cl)C[C@H]2C(=O)NC2(C#N)CC2)n(C2CCOCC2)n1
Return: 8.51

Enquiry: And for N#CC1(NC(=O)[C@@H]2C[C@@H](S(=O)(=O)c3ccccc3Cl)CN2C(=O)Cc2ncc(Cl)cn2)CC1 ?
Return: 9.53

Enquiry: Also, CC(C)C[C@]1(C(=O)NC2(C#N)CC2)C[C@H](S(C)(=O)=O)[C@@H](c2ccc(F)cc2)N1 please.
Return: 5.58

Enquiry: Thanks! And N#CCNC(=O)[C@@H]1C[C@@H](S(=O)(=O)c2ccccc2Cl)CN1C1COC1 ?
Return: 7.00

Enquiry: And Cc1cc(N2C[C@H](S(=O)(=O)c3ccc(F)cc3C(F)(F)F)C[C@H]2C(=O)NC2(C#N)CC2)n(C2CCOCC2)n1 ?
Return: 8.78

Enquiry: Try N#CC1(NC(=O)[C@@H]2C[C@@H](S(=O)(=O)c3ccccc3Cl)CN2C(=O)C2(c3ccccc3)CC2)CC1 next.
Return: 9.70

Enquiry: Next: CCC(=O)N1C[C@H](S(=O)(=O)c2ccccc2C(F)(F)F)C[C@H]1C(=O)NC1(C#N)CC1
Return: 8.80

Enquiry: Repeat with N#CC1(NC(=O)[C@@H]2C[C@@H](S(=O)(=O)c3ccc(N4CCCCC4)cc3Cl)CN2)CC1
Return: 8.70

Enquiry: Let us now turn to CN1CCC(C(=O)N2C[C@H](S(=O)(=O)c3ccccc3C(F)(F)F)C[C@H]2C(=O)NCC#N)CC1
Return: 8.80

Enquiry: Next record, please: N#CC1(NC(=O)[C@@H]2C[C@@H](S(=O)(=O)c3ccc(OCC(F)(F)F)cc3Cl)CN2C(=O)C2(c3ccc(F)cc3)CC2)CC1
Return: 10.52
